MEASURED_ON: wild type HCV NS3/4A 1b protease enzyme (Hepatitis C virus genotype 1b, UniProt P26663)
Construct: 10× stocks of NS3/4A protease enzyme from Bioenza (Mountain View, Calif.); purchased Bioenza (Mountain View, Calif.)
PROTOCOL_SUMMARY: biochemical
Type: biochemical
STATED_CONDITIONS: read-out: Inhibition, WT; WT enzyme, FRET assay
pIC50: −log10 of the molar value.
For each of the molecules below, state its pIC50.

Form: Entry = `C=CC(=O)NCC[C@H](NC(=O)OC(C)(C)C)C(=O)N1C[C@H](Oc2cc(-c3ccccc3)nc3cc(OC)ccc23)C[C@H]1C(=O)N[C@]1(C(=O)NS(=O)(=O)c2ccccc2)C[C@H]1C=C` | System = wild type HCV NS3/4A 1b protease enzyme (Hepatitis C virus genotype 1b, UniProt P26663) | pIC50 = ____
> 8.00

GET /values?readout=pIC50&system=wild type HCV NS3/4A 1b protease enzyme (Hepatitis C virus genotype 1b, UniProt P26663)&item= `C=C[C@@H]1C[C@]1(NC(=O)[C@@H]1C[C@@H](Oc2cc(-c3ccccc3)nc3cc(OC)ccc23)CN1C(=O)[C@H](CNC(=O)[C@H](C)Cl)NC(=O)OC(C)(C)C)C(=O)NS(=O)(=O)c1ccccc1`
> 8.00

Hi! What's the reported pIC50 for `C=CC(=O)N[C@@H](C)C(=O)N1C[C@H](Oc2cc(-c3ccccc3)nc3cc(OC)ccc23)C[C@H]1C(=O)N[C@]1(C(=O)NS(=O)(=O)c2ccccc2)C[C@H]1C=C` on wild type HCV NS3/4A 1b protease enzyme (Hepatitis C virus genotype 1b, UniProt P26663)?
7.00 to 8.00
